- MEASUREMENT NOTES: Mouse PK study (IV and PO)
- Type: in vivo
- CONDITION LABEL: male, C57BL/6, mouse, plasma, po, 10 mg/kg, male C57BL/6 mice, IV 2 mg/kg and PO 10 mg/kg; read-out: F % (bioavailability)
QUANTITY KIND: bioavailability (%)

{"SMILES RECORD": "CCc1nc2ccc(-c3cnc(N4CCC(C(=O)N5CCCC5)CC4)nc3)cn2c1N(C)c1nc(-c2ccc(F)cc2)c(C#N)s1", "bioavailability (%)": 48.5}
{"SMILES RECORD": "CCc1nc2ccc(-c3cnc(N4CC(NC5(CO)CC5)C4)nc3)cn2c1N(C)c1nc(-c2ccc(F)cc2)c(C#N)s1", "bioavailability (%)": 42}
{"SMILES RECORD": "CCc1nc2ccc(-c3ccc(N4CC(C(=O)N5CCC5)C4)nc3)cn2c1N(C)c1nc(-c2ccc(F)cc2)c(C#N)s1", "bioavailability (%)": 40}

----------
- MEASUREMENT NOTES: Mouse PK study (IV and PO)
- Assay type: in vivo
- CONDITION LABEL: male, C57BL/6, mouse, plasma, male C57BL/6 mice, IV 2 mg/kg and PO 10 mg/kg study
QUANTITY KIND: AUC(0-inf) (ng·h/mL)

(I) CCc1nc2ccc(-c3ccc(N4CC(C(=O)N5CCC5)C4)nc3)cn2c1N(C)c1nc(-c2ccc(F)cc2)c(C#N)s1
(II) CCc1nc2ccc(-c3ccc(N4CCC(C(=O)N5CCOCC5)CC4)nc3)cn2c1N(C)c1nc(-c2ccc(F)cc2)c(C#N)s1
(III) CCc1nc2ccc(-c3cnc(N4CCN(C(=O)N5CC[C@H](O)C5)CC4)nc3)cn2c1N(C)c1nc(-c2ccc(F)cc2)c(C#N)s1
(IV) CCc1nc2ccc(-c3ccc(N4CCC(C(=O)N5CCC(O)CC5)CC4)nc3)cn2c1N(C)c1nc(-c2ccc(F)cc2)c(C#N)s1
Problem: Sort ascending by AUC(0-inf): all records listed above. Put the labels in the requested order and list them out.
Result: I, III, II, IV

----------
- SYSTEM: hATX/ENPP2 (Homo sapiens, UniProt Q13822)
- MEASUREMENT NOTES: hATX/ENPP2 biochemical assay using 16:0-LPC as substrate (Amplex Red/choline oxidase/HRP fluorescence)
- CONDITION LABEL: hENPP2 2.5 nM, LPC (16:0) substrate
QUANTITY KIND: IC50

# example entries with known answers
{"MOLECULE": "CCc1nc2ccc(-c3cnc(N4CC(NC5(C#N)CC5)C4)nc3)cn2c1N(C)c1nc(-c2ccc(F)cc2)c(C#N)s1", "IC50": "20 to 200 nM"}
{"MOLECULE": "CCc1nc2ccc(-c3cnc(NC4CNC4)nc3)cn2c1N(C)c1nc(-c2ccc(F)cc2)c(C#N)s1", "IC50": "> 200 nM"}
{"MOLECULE": "CCc1nc2ccc(-c3cnc(N4CCN(C(=O)[C@H]5C[C@H](O)CN5)CC4)nc3)cn2c1N(C)c1nc(-c2ccc(F)cc2)c(C#N)s1", "IC50": "≤ 20 nM"}
{"MOLECULE": "CCc1nc2ccc(-c3cnc(C(=O)N4CC(NC5CC5)C4)nc3)cn2c1N(C)c1nc(-c2ccc(F)cc2)c(C#N)s1", "IC50": "20 to 200 nM"}
{"MOLECULE": "CCc1nc2ccc(-c3ccc(N4CCN(C(=O)C5(CO)CC5)CC4)nc3)cn2c1N(C)c1nc(-c2ccc(F)cc2)c(C#N)s1", "IC50": "≤ 20 nM"}
{"MOLECULE": "CCc1nc2ccc(-c3cnc(C(=O)N4CC(N5CCC5)C4)nc3)cn2c1N(C)c1nc(-c2ccc(F)cc2)c(C#N)s1", "IC50": "20 to 200 nM"}
{"MOLECULE": "CCc1nc2ccc(-c3cnc(N4CCN(C(=O)C5CNC5)CC4)nc3)cn2c1N(C)c1nc(-c2ccc(F)cc2)c(C#N)s1", "IC50": "≤ 20 nM"}
{"MOLECULE": "CCc1nc2ccc(-c3cnc(N4CCC(NC5(CO)CC5)CC4)nc3)cn2c1N(C)c1nc(-c2ccc(F)cc2)c(C#N)s1", "IC50": "≤ 20 nM"}

Problem: Could you tell me which IC50 is on file for CCc1nc2ccc(-c3cnc(CC(N)=O)nc3)cn2c1N(C)c1nc(-c2ccc(F)cc2)c(C#N)s1 ?
Result: 20 to 200 nM

Problem: Entry under review: CCc1nc2ccc(-c3cnc(N4CCN(C(=O)[C@@H]5C[C@@H](O)CN5)CC4)nc3)cn2c1N(C)c1nc(-c2ccc(F)cc2)c(C#N)s1 . Reported IC50?
Result: ≤ 20 nM

Problem: If you can, please state the reported IC50 value of CCc1nc2ccc(-c3ccc(N4CCC(C(=O)N5CC[C@@H](O)C5)CC4)nc3)cn2c1N(C)c1nc(-c2ccc(F)cc2)c(C#N)s1 .
Result: ≤ 20 nM

Problem: Suppose we examine the molecule CCc1nc2ccc(-c3cnc(NC4CN(C(=O)C5CNC5)C4)nc3)cn2c1N(C)c1nc(-c2ccc(F)cc2)c(C#N)s1 ; what IC50 value has been reported?
Result: 20 to 200 nM

Problem: IC50 for CCc1nc2ccc(-c3cnc(N4CCC(NC5(C#N)CC5)CC4)nc3)cn2c1N(C)c1nc(-c2ccc(F)cc2)c(C#N)s1 ?
Result: 20 to 200 nM

These entries and their values trace back to patent US11970493B2.
